- condition: 298.15 K; 101.33 kPa; Liquid; Vibrating tube method
assay-readout: mass density (kg/m3)
Your answer is read as kg/m3, so omit the unit and give the number.

Worked cases, mass density given:
molecule: CCCCn1cc[n+](C)c1.COS(=O)(=O)[O-] [1-butyl-3-methylimidazolium methyl sulfate]
assay-readout: mass density
assay-result: 1208
//
molecule: CCO
assay-readout: mass density
assay-result: 786.4
//
molecule: CCCO
assay-readout: mass density
assay-result: 797.6
//
molecule: CO
assay-readout: mass density
assay-result: 786.3

Looking up C[N+](=O)[O-] , I found its mass density recorded as 1130.9
